Tested on: NCI-H1437
Test: relative viability (nuclei count vs DMSO), 5 days (fraction); higher = more cells survive
Conditions: first compound 0.005 µM
Readout label: relative viability

• CC1(C)CCC(c2ccc(Cl)cc2)=C(CN2CCN(c3ccc(C(=O)NS(=O)(=O)c4ccc(N[C@H](CCN5CCOCC5)CSc5ccccc5)c(S(=O)(=O)C(F)(F)F)c4)cc3)CC2)C1 [Navitoclax] + Cc1nc(Nc2ncc(C(=O)Nc3c(C)cccc3Cl)s2)cc(N2CCN(CCO)CC2)n1 [Dasatinib] (partner 0.075 µM) = 0.377
• CC1(C)CCC(c2ccc(Cl)cc2)=C(CN2CCN(c3ccc(C(=O)NS(=O)(=O)c4ccc(N[C@H](CCN5CCOCC5)CSc5ccccc5)c(S(=O)(=O)C(F)(F)F)c4)cc3)CC2)C1 [Navitoclax] + NC(=O)Nc1cc(-c2cccc(F)c2)sc1C(=O)N[C@H]1CCCNC1 [AZD7762] (partner 0.2 µM) = 1.06
• CC1(C)CCC(c2ccc(Cl)cc2)=C(CN2CCN(c3ccc(C(=O)NS(=O)(=O)c4ccc(N[C@H](CCN5CCOCC5)CSc5ccccc5)c(S(=O)(=O)C(F)(F)F)c4)cc3)CC2)C1 [Navitoclax] + CCNC(=O)c1noc(-c2cc(C(C)C)c(O)cc2O)c1-c1ccc(CN2CCOCC2)cc1 [Luminespib] (partner 0.01 µM) = 1.12
• CC1(C)CCC(c2ccc(Cl)cc2)=C(CN2CCN(c3ccc(C(=O)NS(=O)(=O)c4ccc(N[C@H](CCN5CCOCC5)CSc5ccccc5)c(S(=O)(=O)C(F)(F)F)c4)cc3)CC2)C1 [Navitoclax] + Cc1nc(NC(=O)N2CCC[C@H]2C(N)=O)sc1-c1ccnc(C(C)(C)C(F)(F)F)c1 [Alpelisib] (partner 2 µM) = 0.885
• CC1(C)CCC(c2ccc(Cl)cc2)=C(CN2CCN(c3ccc(C(=O)NS(=O)(=O)c4ccc(N[C@H](CCN5CCOCC5)CSc5ccccc5)c(S(=O)(=O)C(F)(F)F)c4)cc3)CC2)C1 [Navitoclax] + C[C@]1(O)C[C@@H](c2nc(-c3ccc4ccc(-c5ccccc5)nc4c3)c3c(N)nccn32)C1 [Linsitinib] (partner 1 µM) = 0.952
